# method-description: Tmax in DBA1 mouse lymph nodes at 5 mg/kg, po
# Format: ADME, organism-based, Lymph node
# Parameters: dose 5 mg/kg, route oral
observation-type: Tmax (h)
Lab book: enter the figure in h, no units written.

// query Entry COc1c(C)cnc(Cn2cc(C#CCC(C)(C)O)c3c(Cl)nc(N)nc32)c1C has what Tmax?
// result 1

----------
# method-description: AUC (infinity) in DBA1 mouse plasma at 5 mg/kg, po
# Type: ADME, organism-based
# Parameters: dose 5 mg/kg, route oral, time infinity
observation-type: AUC(0-inf)
Please answer using a numeric value trailed by its unit.

// query Entry COc1c(C)cnc(Cn2cc(C#CCC(C)(C)O)c3c(Cl)nc(N)nc32)c1C has what AUC(0-inf)?
// result 2120 ng·h/mL

----------
# method-description: Half life in DBA1 mouse plasma at 5 mg/kg, po
# Format: ADME, organism-based
# Set-up: dose 5 mg/kg, route oral
observation-type: half-life
Please answer using a numeric value trailed by its unit.

// query Entry COc1c(C)cnc(Cn2cc(C#CCC(C)(C)O)c3c(Cl)nc(N)nc32)c1C has what half-life?
// result 1.2 h

----------
# method-description: Tmax in DBA1 mouse brain at 5 mg/kg, po
# Format: ADME, organism-based
# Set-up: dose 5 mg/kg, route oral
observation-type: Tmax (min)
Lab book: enter the figure in min, no units written.

// query Entry COc1c(C)cnc(Cn2cc(C#CCC(C)(C)O)c3c(Cl)nc(N)nc32)c1C has what Tmax?
// result 30

----------
# method-description: Toxicity in po dosed mouse administered as a single dose
# Assay type: organism-based
# condition-description: in vivo
observation-type: MTD

// query Entry COc1c(C)cnc(Cn2cc(C#CCC(C)(C)O)c3c(Cl)nc(N)nc32)c1C has what MTD?
// result 30 mg/kg

// query What would you report for C=CCNC1=C2C[C@@H](C)C[C@H](OC)[C@H](O)[C@@H](C)/C=C(\C)[C@H](OC(N)=O)[C@@H](OC)/C=C\C=C(/C)C(=O)NC(=CC1=O)C2=O ?
// result 60 mg/kg

----------
# method-description: Cmax in DBA1 mouse brain at 5 mg/kg, po
# Format: ADME, organism-based
# Parameters: dose 5 mg/kg, route oral
observation-type: Cmax (ng/mL)
Lab book: enter the figure in ng/mL, no units written.

// query Entry COc1c(C)cnc(Cn2cc(C#CCC(C)(C)O)c3c(Cl)nc(N)nc32)c1C has what Cmax?
// result 1450
